tested on: […]; test: Macrocyclization reaction, final product ratios by LC-ESI MS ion counts; format: biochemical; conditions: 100 μM peptide, 50 μM enzyme, 120 h at 37° C.
reported.metric: Linear ion count (%) (M + H = 717)
Give a bare numeral; the unit % is implied.

Data request: Reported Linear ion count (%) (M + H = 717), molecule PatGmacΔ1 (protein) GEDEIESAGVSASEVESSATKQKVALHPHDLDERIPGLADLHNQTLGDPQITIVIIDGDPDYTLSCFEGAEVSKVFPYWHEPAEPITKDRIVLNDHACHVTSTIVGQEHSPVFGIAPNCRVINMPQDAVIRGNYDDVMSPLNLARAIDLALELGANIIHCAFCRPTQTSEGEEILVQAIKKCQDNNVLIVSPTGNNSNESWCLPAVLPGTLAVGAAKVDGTPCHFSNWGGNNTKEGILAPGEEILGAQPCTEEPVRLTGTSMAAPVMTGISALLMSLQVQQGKPVDAEAVRTALLKTAIPCDPEVVEEPERCLRGFVNIPGAMKVLFGQ : ____
Data returned: 92
